Data provenance: patent US20190284262A1

# Measured Target: T1, Foxp3-7 peptide/HLA-A*02:01 complex on the cell surface (human)
# T1 construct: also called Foxp3-7/HLA-A2 complex
# Protocol Description: flow cytometry, phage on peptide-loaded T2 cells
Test Readout: MFI
I only need the number, thanks.

Value of MFI reported for the binder EXT017-28 scFv phage clone (scFv, full-length scFv with His+HA tags; also called EXT017-28 phage; phage clone #28) scFv: QSVLTQPPSVSGAPGQRVTISCTGSSSNIGAGYDVHWYQQLPGTAPKLLIYGNSDRPSGVPDRFSGSKSGTSASLAITGLQAEDEADYYCQSYDSSLSGYVFGTGTKVTVLGSRGGGGSGGGGSGGGGSLEMAQMQLVQSGAEVKKPGSSVKVSCKASGGTFSTYAISWVRQAPGQGLEWMGGIIPIFGTANYAQKFQGRVTITADKSTSTAYMEVRNLRSEDTAVYYCARAEYVYGEYDQWGQGTLVTVSSTSGQAGQHHHHHHGAYPYDVPDYAS is 39500
